study.system: GluN2B glutamate receptors (Homo sapiens (Human), UniProt Q05586+Q13224)
Sequence (Q13224 27-1484, other chains not shown): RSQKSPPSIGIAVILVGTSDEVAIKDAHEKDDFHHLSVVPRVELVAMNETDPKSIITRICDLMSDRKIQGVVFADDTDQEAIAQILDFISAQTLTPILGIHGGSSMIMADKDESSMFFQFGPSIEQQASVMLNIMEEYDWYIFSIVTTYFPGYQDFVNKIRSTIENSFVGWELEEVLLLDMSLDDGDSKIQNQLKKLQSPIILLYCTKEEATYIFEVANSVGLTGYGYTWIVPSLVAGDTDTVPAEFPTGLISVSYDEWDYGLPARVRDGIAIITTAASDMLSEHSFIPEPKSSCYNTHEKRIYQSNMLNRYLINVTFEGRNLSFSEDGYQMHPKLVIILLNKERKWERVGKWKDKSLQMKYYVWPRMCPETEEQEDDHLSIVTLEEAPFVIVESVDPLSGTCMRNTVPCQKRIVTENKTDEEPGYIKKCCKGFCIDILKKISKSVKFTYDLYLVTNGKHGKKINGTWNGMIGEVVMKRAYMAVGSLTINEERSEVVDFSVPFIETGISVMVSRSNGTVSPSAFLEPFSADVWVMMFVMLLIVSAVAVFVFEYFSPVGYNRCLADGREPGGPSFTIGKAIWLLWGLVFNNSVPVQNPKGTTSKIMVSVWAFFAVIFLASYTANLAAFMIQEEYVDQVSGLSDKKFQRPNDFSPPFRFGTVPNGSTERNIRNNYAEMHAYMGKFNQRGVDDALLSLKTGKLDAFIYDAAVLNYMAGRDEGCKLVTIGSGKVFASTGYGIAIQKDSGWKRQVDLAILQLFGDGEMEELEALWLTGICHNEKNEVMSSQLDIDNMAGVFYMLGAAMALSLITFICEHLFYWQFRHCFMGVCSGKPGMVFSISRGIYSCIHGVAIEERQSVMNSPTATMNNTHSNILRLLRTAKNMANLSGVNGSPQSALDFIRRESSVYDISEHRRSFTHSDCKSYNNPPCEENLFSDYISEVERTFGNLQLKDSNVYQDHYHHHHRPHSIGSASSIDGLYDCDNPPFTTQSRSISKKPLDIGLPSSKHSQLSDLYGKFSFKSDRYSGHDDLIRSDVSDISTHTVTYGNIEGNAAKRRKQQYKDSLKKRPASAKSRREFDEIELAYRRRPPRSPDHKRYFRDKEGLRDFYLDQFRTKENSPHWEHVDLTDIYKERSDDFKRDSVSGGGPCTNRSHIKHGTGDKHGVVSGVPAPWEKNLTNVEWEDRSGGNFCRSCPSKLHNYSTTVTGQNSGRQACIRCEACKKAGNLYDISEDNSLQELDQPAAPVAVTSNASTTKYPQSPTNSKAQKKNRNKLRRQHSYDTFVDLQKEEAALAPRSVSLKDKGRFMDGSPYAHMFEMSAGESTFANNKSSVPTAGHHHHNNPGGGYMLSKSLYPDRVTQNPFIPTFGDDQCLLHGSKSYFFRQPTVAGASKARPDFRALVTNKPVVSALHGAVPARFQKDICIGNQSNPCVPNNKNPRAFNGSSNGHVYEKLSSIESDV
test: Whole-cell patch clamp of mammalian cells (Ionworks Barracuda), positive allosteric modulation, GluN2B
Type: cell-based
conditions: % potentiation of current elicited with EC20 L-glutamate and 30 μM glycine; read-out: Avg Emax 2B (%)
In this section we review reported Emax values for a set of compounds.
Write it as a number; the unit % goes unstated.

Problem: For C[C@H](CCCO)[C@H]1CC[C@H]2[C@@H]3CC[C@H]4C[C@](O)(C(F)(F)F)CC[C@]4(C)[C@H]3CC[C@]12C [Compound 2499] , what is its reported Emax?
Solution: 238

Problem: Next compound: CC[C@]1(O)CC[C@H]2C(=CC[C@@H]3[C@@H]2CC[C@]2(C)[C@@H]([C@H](C)CCC[C@@H](O)C(F)(F)F)CC[C@@H]32)C1 [Compound 10456]
Solution: 266

Problem: Next compound: C[C@H](CCC(O)C(F)(F)F)[C@H]1CC[C@H]2[C@@H]3CC[C@H]4C[C@](O)(C(F)(F)F)CC[C@]4(C)[C@H]3CC[C@]12C (stereo partly drawn) [Compound 2918]
Solution: 506

* * *

In this section we review reported Emax values for a set of compounds.
study.system: GlunN1/GluN2A glutamate receptors (Homo sapiens (Human), UniProt Q05586+Q12879)
Sequence (Q12879 23-1464, other chains not shown): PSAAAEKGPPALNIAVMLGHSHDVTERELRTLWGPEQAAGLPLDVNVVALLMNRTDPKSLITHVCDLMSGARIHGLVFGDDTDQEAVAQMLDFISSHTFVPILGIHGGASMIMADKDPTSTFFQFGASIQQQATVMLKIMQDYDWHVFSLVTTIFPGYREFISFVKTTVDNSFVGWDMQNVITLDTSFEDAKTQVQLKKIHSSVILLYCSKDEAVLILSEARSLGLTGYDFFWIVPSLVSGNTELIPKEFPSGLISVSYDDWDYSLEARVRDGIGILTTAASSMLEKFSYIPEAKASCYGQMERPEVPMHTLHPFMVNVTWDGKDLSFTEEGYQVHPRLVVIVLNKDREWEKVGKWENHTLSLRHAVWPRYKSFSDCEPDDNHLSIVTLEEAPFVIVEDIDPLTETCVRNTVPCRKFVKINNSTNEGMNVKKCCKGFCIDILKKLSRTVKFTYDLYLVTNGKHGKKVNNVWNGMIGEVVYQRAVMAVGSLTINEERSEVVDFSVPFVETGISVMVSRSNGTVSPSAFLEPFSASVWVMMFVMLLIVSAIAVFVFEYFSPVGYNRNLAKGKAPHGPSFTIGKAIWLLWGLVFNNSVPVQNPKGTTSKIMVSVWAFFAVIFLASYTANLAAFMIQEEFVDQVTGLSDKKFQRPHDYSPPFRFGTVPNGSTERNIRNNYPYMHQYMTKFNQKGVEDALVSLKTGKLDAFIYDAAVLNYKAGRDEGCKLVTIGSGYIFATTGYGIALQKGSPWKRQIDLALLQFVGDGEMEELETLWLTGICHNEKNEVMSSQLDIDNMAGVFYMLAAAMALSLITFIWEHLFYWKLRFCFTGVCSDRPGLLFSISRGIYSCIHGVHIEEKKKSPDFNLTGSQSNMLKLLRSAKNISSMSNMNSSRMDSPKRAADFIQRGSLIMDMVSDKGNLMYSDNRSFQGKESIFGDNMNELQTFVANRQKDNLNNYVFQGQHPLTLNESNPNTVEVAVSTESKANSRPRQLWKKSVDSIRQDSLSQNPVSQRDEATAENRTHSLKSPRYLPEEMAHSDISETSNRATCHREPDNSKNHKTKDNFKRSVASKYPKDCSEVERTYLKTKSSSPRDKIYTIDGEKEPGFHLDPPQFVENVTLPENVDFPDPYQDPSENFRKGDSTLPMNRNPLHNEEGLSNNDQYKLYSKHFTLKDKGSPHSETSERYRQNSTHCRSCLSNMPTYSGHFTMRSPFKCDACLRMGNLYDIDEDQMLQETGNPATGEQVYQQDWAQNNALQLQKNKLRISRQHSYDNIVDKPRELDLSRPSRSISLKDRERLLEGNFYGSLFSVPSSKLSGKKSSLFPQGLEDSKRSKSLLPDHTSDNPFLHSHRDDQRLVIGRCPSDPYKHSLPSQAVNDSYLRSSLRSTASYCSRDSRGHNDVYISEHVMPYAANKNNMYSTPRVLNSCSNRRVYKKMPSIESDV
test: Whole-cell patch clamp of mammalian cells (Ionworks Barracuda), positive allosteric modulation, GluN1/GluN2A
Assay type: cell-based
conditions: HEK293, read-out: Avg Emax 2A (%)
Write it as a number; the unit % goes unstated.

Example cases with answers are listed next.
Problem: For CC[C@]1(O)CC[C@H]2C(=CC[C@@H]3[C@@H]2CC[C@]2(C)[C@@H]([C@H](C)CC[C@H](O)C(C)(C)C)CC[C@@H]32)C1 , what is its reported Emax?
Solution: 195

Problem: Next compound: CC[C@]1(O)CC[C@H]2C(=CC[C@@H]3[C@@H]2CC[C@]2(C)[C@@H]([C@H](C)CCC(O)C(C)(C)C)CC[C@@H]32)C1 (stereo partly drawn)
Solution: 252

// moving on: another record for Emax
Problem: For CC[C@H](O)CCC[C@@H](C)[C@H]1CC[C@H]2[C@@H]3CC=C4C[C@](O)(CC)CC[C@@H]4[C@H]3CC[C@]12C , what is its reported Emax?
Solution: 97.4

* * *

In this section we review reported Emax values for a set of compounds.
study.system: GluN2B glutamate receptors (Homo sapiens (Human), UniProt Q05586+Q13224)
test: Whole-cell patch clamp of mammalian cells (Ionworks Barracuda), positive allosteric modulation, GluN2B
Assay type: cell-based
conditions: % potentiation of current elicited with EC20 L-glutamate and 30 μM glycine; read-out: Avg Emax 2B (%)
Write it as a number; the unit % goes unstated.

Problem: Recorded Emax for C[C@H](CC[C@@H](O)C1CCCCC1)[C@H]1CC[C@H]2[C@@H]3CC[C@H]4C[C@](O)(C(F)(F)F)CC[C@]4(C)[C@H]3CC[C@]12C with GluN2B glutamate receptors (Homo sapiens (Human), UniProt Q05586+Q13224), please?
Solution: 20.1

Next:
Problem: Recorded Emax for CC[C@]1(O)CC[C@@]2(C)C(=CC[C@H]3[C@@H]4CC[C@H]([C@H](C)CC[C@@H](O)c5ccccc5C#N)[C@@]4(C)CC[C@@H]32)C1 with GluN2B glutamate receptors (Homo sapiens (Human), UniProt Q05586+Q13224), please?
Solution: 180

Problem: Next compound: CC[C@]1(O)CC[C@@]2(C)C(=CC[C@H]3[C@@H]4CC[C@H]([C@H](C)CC[C@H](O)c5ccccc5C#N)[C@@]4(C)CC[C@@H]32)C1
Solution: 46.9

Problem: Next compound: CC[C@]1(O)CC[C@@]2(C)C(=CC[C@H]3[C@@H]4CC[C@H]([C@H](C)CC[C@@H](O)c5cccc(C#N)c5)[C@@]4(C)CC[C@@H]32)C1
Solution: 315

Problem: Next compound: CC(C)[C@H]1CC[C@](O)(CC[C@@H](C)[C@H]2CC[C@H]3[C@@H]4CC[C@H]5C[C@](O)(C(F)(F)F)CC[C@]5(C)[C@H]4CC[C@]23C)CC1
Solution: 24.3

Problem: Next compound: CC[C@]1(O)CC[C@@]2(C)C(=CC[C@H]3[C@@H]4CC[C@H]([C@H](C)CC[C@H](O)c5cccc(F)c5)[C@@]4(C)CC[C@@H]32)C1
Solution: 402

Numbers sourced from patent US11149054B2.
